// GI50 lookup, one value per entry
assay protocol: Antiproliferative activity against human MKN28 cells after 2 days by sulforhodamine B assay
Type: functional
condition parameters: MKN-28, 48 h
Field format: number, assumed µM, no unit text.

INSERT INTO results (smiles_str, endpoint_name, unit_tag, value) VALUES
  ('CC(C)c1ccc(/C=C/C(=O)NCCCCCNc2ccnc3cc(Cl)ccc23)cc1', 'GI50', 'µM', 14),
  ('O=C(/C=C/c1cccc([N+](=O)[O-])c1)NCCCCNc1ccnc2cc(Cl)ccc12', 'GI50', 'µM', 16.2),
  ('O=C(/C=C/c1ccc(F)cc1)NCCCNc1ccnc2cc(Cl)ccc12', 'GI50', 'µM', 34.7),
  ('CC(C)c1ccc(/C=C/C(=O)NCCCCN2CCOCC2)cc1', 'GI50', 'µM', 72.5);

Now take the following molecule into account.
Task: # lookup: GI50 of `O=C(/C=C/c1ccc(F)cc1)NCCCCNc1ccnc2cc(Cl)ccc12`
Output: 11.8
